# Measured On: Cdk2[C177A, F80C, K278C] (Homo sapiens, UniProt P24941, C177A/F80C/K278C)
# Construct: poly-histidine; made in house; host or cells: E. coli
# Assay Info: Kinetic thiol consumption assay with mutant Cdk2 as model thiol
# Format: binding
# Set-up: unit not given here
# Stated Conditions: 500 μM ligand, 5 μM thiol, phosphate buffer pH 8
Property Name: Rate constant with Cdk2[C177A, F80C, K278C] (k(Cdk2_mut))

{"Compound": "C=CC(=O)NC1c2ccccc2Oc2ccccc21", "Value Reported": 0.00127}
{"Compound": "C=CC(=O)NC1C2CC3CC(C2)CC1C3 (stereo not drawn)", "Value Reported": 0.00101}

[A] C=CC(=O)NCC1CCCN1S(=O)(=O)c1ccc(C(=O)O)cc1 (stereo not drawn)
[B] C=CC(=O)NCC1CN(C2CC2)CCO1 (stereo not drawn)
[C] C=CC(=O)N(Cc1ccc2c(c1)CCO2)C1CCCC1
[D] C=CC(=O)N1CCN(c2cccc3cccnc23)CC1
Please order the records by their reported Rate constant with Cdk2[C177A, F80C, K278C] (k(Cdk2_mut)), lowest number first. Put the labels in the order asked and list them.
A, B, D, C

FYI, the data here is from patent US11415579B2.
